Listed here are sequences together with their documented apparent KD of K4 kissing-loop reporter.
- Test system: K4 kissing-loop RNA reporter;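 note: bound reporter read as fluorescence of individual clusters on recovered sequencing chips by microscopy, with normalized cluster intensities fitted with a binding model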
- TEST_METHOD_NOTES: apparent KD of K4 kissing-loop reporter; higher = weaker reporter binding
- SETUP_CONDITIONS: Eterna round: R107; input ligand: FMN 200 uM
RESULT_TYPE: apparent KD of K4 kissing-loop reporter

SEQUENCE_RECORD	RESULT_TYPE	DATA_VALUE
GAGGGCUCGGGAGGAUAUGAGUCUAGUGAUGUUAGGCGGUCCAUGCGCGUGGCGCGUUAUGCCCUUUUAGAAGGCCCGAGCCCGC [#2 Exclusion - FMN B Attempt #23 (HarryS)]	apparent KD of K4 kissing-loop reporter	109 nM
AAAUUUUAAAGUGAUACCAGACAUCUCUAUUACAUUAAUAUAGCUAAGUGAUGUUUAGCAGUCCCUUGGCAGCACAAUUUAAUUA [JR_SSTheophyB_Sub012]	apparent KD of K4 kissing-loop reporter	336 nM
GGGAGAAGAGCGGCCGCCACUCAGACAGCAGCAGAAUAUAGUGAUGUUAUAUAGGAAAGGCGGAGGAGGACCGGGCUUAAGAGGG [#20 K4 Tryptophan B Same State]	apparent KD of K4 kissing-loop reporter	308 nM
UGAUAGGACAGAAGGAGCGGAAGCUAGUCAAAGACUAGCACGUUAAUAACAGGAGUGAUGUUCCAGGUAGGUCGCUGUCCUAUCU [ArgBX 24 #SwitchBubble #StaticStem]	apparent KD of K4 kissing-loop reporter	126 nM
UAAUAUAAUCUGUCGUUUACAAUAUUUAGUCAGGAUAUCGUAUAUUCGAGAAGGGACACUAUCUAGUGAUGUUAGAUAUUUCGUU [JR_ExcFMNA_Sub015]	apparent KD of K4 kissing-loop reporter	51 nM
UGUACCGAGUUAGGAUAUGUCGUCGAAAGACGAAAUGGAGUGAUGUUCCUUAAACUGCGAAAGCAGACAGAAGGGACUUGGUACU [FmnBS 29 U11]	apparent KD of K4 kissing-loop reporter	233 nM
